# tested.on: Ubiquitin-activating enzyme e1, putative (Leishmania donovani (strain BPK282A1)) (UniProt E9BSI1)
# Sequence (whole entry): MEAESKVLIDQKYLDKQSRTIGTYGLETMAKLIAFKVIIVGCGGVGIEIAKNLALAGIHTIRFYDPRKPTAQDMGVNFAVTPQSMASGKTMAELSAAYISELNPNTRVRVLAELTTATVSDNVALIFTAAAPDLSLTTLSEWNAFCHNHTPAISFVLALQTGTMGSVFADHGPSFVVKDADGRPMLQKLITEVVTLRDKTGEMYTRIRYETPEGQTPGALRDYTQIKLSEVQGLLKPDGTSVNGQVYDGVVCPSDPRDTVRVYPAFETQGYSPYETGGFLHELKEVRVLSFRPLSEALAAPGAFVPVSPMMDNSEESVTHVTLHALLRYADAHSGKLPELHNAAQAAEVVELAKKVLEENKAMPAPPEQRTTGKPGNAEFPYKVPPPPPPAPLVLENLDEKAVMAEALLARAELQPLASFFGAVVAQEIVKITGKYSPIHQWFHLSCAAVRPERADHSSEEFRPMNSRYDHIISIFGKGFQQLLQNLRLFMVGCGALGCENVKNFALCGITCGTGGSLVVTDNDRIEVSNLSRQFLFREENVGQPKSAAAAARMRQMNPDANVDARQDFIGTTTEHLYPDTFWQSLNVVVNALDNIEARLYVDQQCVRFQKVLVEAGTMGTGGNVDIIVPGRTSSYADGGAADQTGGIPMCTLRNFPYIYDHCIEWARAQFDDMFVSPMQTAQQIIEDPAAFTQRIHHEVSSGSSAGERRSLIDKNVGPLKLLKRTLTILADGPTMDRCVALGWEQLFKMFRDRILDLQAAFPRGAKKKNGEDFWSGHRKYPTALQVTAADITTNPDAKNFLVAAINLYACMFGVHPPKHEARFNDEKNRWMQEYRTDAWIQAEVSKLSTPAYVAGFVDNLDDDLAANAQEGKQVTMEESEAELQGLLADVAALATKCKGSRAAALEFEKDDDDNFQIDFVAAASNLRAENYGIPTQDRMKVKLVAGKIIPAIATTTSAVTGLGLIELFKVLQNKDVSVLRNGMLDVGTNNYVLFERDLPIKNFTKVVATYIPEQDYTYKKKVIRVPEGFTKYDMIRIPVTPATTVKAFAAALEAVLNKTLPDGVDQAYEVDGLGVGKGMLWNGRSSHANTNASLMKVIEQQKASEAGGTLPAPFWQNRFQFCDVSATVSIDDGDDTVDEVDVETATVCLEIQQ
# protocol.description: Leishmania donovani Ubiquitin Activating Enzyme (LdE1)
# Format: functional
# Design: scale not given: direction of the effect not stated beside the values
# conditions: 30 µM
Entries with a potency or affinity are not part of this list.
Percent Effect values for the compounds below.
measurement.kind: Percent Effect

[[record]]
compound = "c1cnc(N2CCCC3(CCN(Cc4ccncc4)C3)C2)nc1 (stereo unspecified)"
result = "8.11%"

[[record]]
compound = "COCC(C)NC(=O)c1cn(C(C)(C)C)c2ncccc12 (stereo unspecified)"
result = "14.7%"

[[record]]
compound = "O=C(CC1CC1)N[C@@H]1CN(Cc2ccncc2)C[C@@H]2CCCO[C@@H]21"
result = "5.33%"

[[record]]
compound = "O=C(c1ccc2c(c1)COC2)N1CCC(Nc2ccccc2)CC1"
result = "7.79%"

[[record]]
compound = "c1cnc(NC[C@@H]2CCC[C@@H]3CN(Cc4cccnc4)C[C@@H]32)nc1"
result = "10.8%"

[[record]]
compound = "COc1cccc([C@@H]2CCN(Cc3ccc4ccccc4n3)C[C@H]2O)c1"
result = "5.41%"

[[record]]
compound = "O=C(Cc1cccs1)N1C[C@@H]2OCCN(CC3CCCO3)[C@@H]2C1 (stereo partly specified)"
result = "0%"

[[record]]
compound = "Cc1ccc(N2CCO[C@H]3CN(CC4CC4)C[C@H]32)nn1"
result = "2.7%"

[[record]]
compound = "Cc1n[nH]c2c1C(c1cnn(C)c1)SCC(=O)N2 (stereo unspecified)"
result = "1.33%"

[[record]]
compound = "O=C([C@H]1C[C@H]2OCC[C@H]2N(Cc2cccnc2)C1)N1CCCO1"
result = "10.8%"

[[record]]
compound = "O=C1[C@H]2CN(Cc3cccs3)C[C@H]2CN1c1cncnc1"
result = "2.6%"


* * *

Percent Effect values for the molecules below.
# tested.on: Aspartate--tRNA(Asp/Asn) ligase (Mycobacterium tuberculosis (strain ATCC 25618 / H37Rv))
# protocol.description: Assay for Asp RNA synthetase-1 from Mycobacterium tuberculosis
# Assay type: functional
# Design: scale not given: direction of the effect not stated beside the values
# conditions: 30 µM
measurement.kind: Percent Effect (%)

[[record]]
molecule = "CCc1csc(C2CCCN(C(=O)c3c[nH]c(C)n3)C2)n1 (stereo not drawn)"
measurement_kind = "Percent Effect"
result = -0.0911

[[record]]
molecule = "CC(C)CC(=O)N1CCCn2cnc(CN3CCCC3=O)c2C1"
measurement_kind = "Percent Effect"
result = -3.68

[[record]]
molecule = "CNC(=O)[C@H]1C[C@@H]2CN(C(=O)c3cscn3)C[C@@H]2N1S(C)(=O)=O"
measurement_kind = "Percent Effect"
result = 2.65

[[record]]
molecule = "N#Cc1ccc(OCCN2CCc3c(ncn3C3CC3)C2)cc1"
measurement_kind = "Percent Effect"
result = 1.24

[[record]]
molecule = "CC(CNC(=O)Nc1ccc(N(C)C)nc1)Cn1cccn1 (stereo not drawn)"
measurement_kind = "Percent Effect"
result = 5.91

[[record]]
molecule = "Cc1ccc(N(C)C2CCN(C(=O)c3ccsc3)CC2)nn1"
measurement_kind = "Percent Effect"
result = 0.243

[[record]]
molecule = "CC(NC(=O)N(C)Cc1ccncc1)c1nncn1C (stereo not drawn)"
measurement_kind = "Percent Effect"
result = -5.91

[[record]]
molecule = "Cn1c(Cn2cccn2)nnc1C1CCCN(c2ccncc2)C1 (stereo not drawn)"
measurement_kind = "Percent Effect"
result = 1.37

[[record]]
molecule = "Cc1nc(CN2C(=O)C[C@H]3[C@H]2CCN3C2CCOCC2)cs1"
measurement_kind = "Percent Effect"
result = -3.97

[[record]]
molecule = "O=c1c2ccccc2nc2n1CCN(Cc1cccs1)CC2"
measurement_kind = "Percent Effect"
result = 1.35

[[record]]
molecule = "O=C(CCC1CCN(Cc2ncc[nH]2)CC1)Nc1ccccc1Cl"
measurement_kind = "Percent Effect"
result = 0.166

[[record]]
molecule = "CC(NC(=O)NCCOc1ccc(F)c(F)c1)c1nncn1C (stereo not drawn)"
measurement_kind = "Percent Effect"
result = -4.5

[[record]]
molecule = "Cc1cc(F)ccc1CN1CCC(O)(CN2CCCCC2)C1 (stereo not drawn)"
measurement_kind = "Percent Effect"
result = -0.747

[[record]]
molecule = "O=C(CC1CCCC1)N1CCCC(c2n[nH]c3nccnc23)C1 (stereo not drawn)"
measurement_kind = "Percent Effect"
result = -1.74

[[record]]
molecule = "CC(C)c1nnc2n1CCN(CCCS(=O)(=O)c1ccccc1)C2"
measurement_kind = "Percent Effect"
result = -5.16

[[record]]
molecule = "Cc1cc(C)n(CC2CCCN2Cc2c(C)noc2C)n1 (stereo not drawn)"
measurement_kind = "Percent Effect"
result = -2.12

[[record]]
molecule = "CCNC(c1cccnc1)c1ccc(F)c(F)c1 (stereo not drawn)"
measurement_kind = "Percent Effect"
result = -4.58

[[record]]
molecule = "Cn1cc(S(=O)(=O)N2CCCC2CC(=O)c2cccs2)cn1 (stereo not drawn)"
measurement_kind = "Percent Effect"
result = 1.01

[[record]]
molecule = "CC(C)(C)C(O)CN1CCN(C(=O)c2cccc3[nH]ncc23)CC1 (stereo not drawn)"
measurement_kind = "Percent Effect"
result = -5.46

[[record]]
molecule = "CC(C)Nc1nc(N2CCCC2)nc2c1CN(C(C)C)CC2"
measurement_kind = "Percent Effect"
result = 2.18

[[record]]
molecule = "CCc1nnc(CN(C)c2nc(C3CCCC3)nc3c2cnn3C)o1"
measurement_kind = "Percent Effect"
result = -4.57

[[record]]
molecule = "Cc1cnn(CC2CN(Cc3cccc(OCC(N)=O)c3)CCO2)c1 (stereo not drawn)"
measurement_kind = "Percent Effect"
result = -5.07

[[record]]
molecule = "Cc1cc(N2CCC(Cc3ccccc3)CC2)nc(-c2ccncc2)n1"
measurement_kind = "Percent Effect"
result = -0.602

[[record]]
molecule = "COc1ccccc1S(=O)(=O)Nc1ccc2c(C(=O)O)c[nH]c2c1"
measurement_kind = "Percent Effect"
result = 3.46

[[record]]
molecule = "Cn1ccnc1-c1cccc(NC(=O)NCCN2CCOCC2)c1"
measurement_kind = "Percent Effect"
result = 4.54

[[record]]
molecule = "CCc1nc(C2CCCN(C(=O)c3cn(C)nc3C)C2)no1 (stereo not drawn)"
measurement_kind = "Percent Effect"
result = -7.17

[[record]]
molecule = "Cc1ccc(-c2cccc(-c3ccn(CCN4CCCC4)n3)c2)nn1"
measurement_kind = "Percent Effect"
result = -1.26

[[record]]
molecule = "O=C(COc1coc(CN2CCCCC2)cc1=O)Nc1ccccc1Cl"
measurement_kind = "Percent Effect"
result = 0.319

[[record]]
molecule = "COCC(NC(=O)c1ccc[nH]1)c1cccc(C(F)(F)F)c1 (stereo not drawn)"
measurement_kind = "Percent Effect"
result = -2.7

[[record]]
molecule = "O=C(COC[C@H]1CC[C@H]2[C@H](CCN2c2ncccn2)O1)N1CCCC1"
measurement_kind = "Percent Effect"
result = -2.51

[[record]]
molecule = "Cc1cc(C)c(CNC(=O)N2CCCC2C(N)=O)c(=O)[nH]1 (stereo not drawn)"
measurement_kind = "Percent Effect"
result = -6.91

[[record]]
molecule = "Cc1cc(C)n(CC2CCCN2CC(=O)N(C)C)n1 (stereo not drawn)"
measurement_kind = "Percent Effect"
result = -2.12

[[record]]
molecule = "CC(=O)N1CCC(c2ccnc(Nc3cnccn3)n2)C1 (stereo not drawn)"
measurement_kind = "Percent Effect"
result = 1.13

[[record]]
molecule = "Cc1nc(C)n(CC2CCCN(CCc3ccccn3)C2)n1 (stereo not drawn)"
measurement_kind = "Percent Effect"
result = -0.8

[[record]]
molecule = "COC(=O)C(c1cc(F)ccc1F)N(C)C(=O)c1csnn1 (stereo not drawn)"
measurement_kind = "Percent Effect"
result = 3.92

[[record]]
molecule = "Fc1ccc(-c2nnc(CN3CCOC(Cn4cncn4)C3)o2)cc1 (stereo not drawn)"
measurement_kind = "Percent Effect"
result = 1.55

[[record]]
molecule = "CN1CC(=O)N(c2cccnc2)CC12CCN(C(=O)c1cccnc1)C2 (stereo not drawn)"
measurement_kind = "Percent Effect"
result = 4.16

[[record]]
molecule = "O=C(NC1(c2nnn(CCO)n2)CCCC1)c1ccccc1"
measurement_kind = "Percent Effect"
result = -6.13

[[record]]
molecule = "CC1(C)CN(C(=O)NCCc2ccn(-c3ccccc3)n2)CCO1"
measurement_kind = "Percent Effect"
result = 2.57

[[record]]
molecule = "c1cncc(COCc2nnc3n2CCN(Cc2ccoc2)C3)c1"
measurement_kind = "Percent Effect"
result = -0.0297

[[record]]
molecule = "CN(C)S(=O)(=O)N1CCCC1CC(=O)c1cccs1 (stereo not drawn)"
measurement_kind = "Percent Effect"
result = 2.35

[[record]]
molecule = "O=C(NCc1ccccc1F)N1CCC(C2OCCO2)CC1"
measurement_kind = "Percent Effect"
result = -2.61

[[record]]
molecule = "CCn1nccc1CNC(=O)C(C)n1cc2c(n1)c(C)nn2C (stereo not drawn)"
measurement_kind = "Percent Effect"
result = -5.02

[[record]]
molecule = "CN(C)C(C(=O)N1CCCC1)c1ccccc1F (stereo not drawn)"
measurement_kind = "Percent Effect"
result = 3.9

[[record]]
molecule = "COCCn1ccnc1C1CCCN(C(=O)CSCC2CC2)C1 (stereo not drawn)"
measurement_kind = "Percent Effect"
result = -2.09

[[record]]
molecule = "CCc1nnsc1C(=O)NC1CCN(c2ccccn2)CC1"
measurement_kind = "Percent Effect"
result = -5.57

[[record]]
molecule = "c1ccc2cc(OCCN3CCn4c(nnc4C4CC4)C3)ccc2c1"
measurement_kind = "Percent Effect"
result = 3.95

[[record]]
molecule = "CC[C@H]1N(C)CCC[C@]12CCC(=O)N2Cc1ccncc1"
measurement_kind = "Percent Effect"
result = 0.228

